- assayed_system: human OX2 receptor (Homo sapiens, UniProt O43614)
- Construct: expressed in transfected cells
- Sequence (O43614 1-444): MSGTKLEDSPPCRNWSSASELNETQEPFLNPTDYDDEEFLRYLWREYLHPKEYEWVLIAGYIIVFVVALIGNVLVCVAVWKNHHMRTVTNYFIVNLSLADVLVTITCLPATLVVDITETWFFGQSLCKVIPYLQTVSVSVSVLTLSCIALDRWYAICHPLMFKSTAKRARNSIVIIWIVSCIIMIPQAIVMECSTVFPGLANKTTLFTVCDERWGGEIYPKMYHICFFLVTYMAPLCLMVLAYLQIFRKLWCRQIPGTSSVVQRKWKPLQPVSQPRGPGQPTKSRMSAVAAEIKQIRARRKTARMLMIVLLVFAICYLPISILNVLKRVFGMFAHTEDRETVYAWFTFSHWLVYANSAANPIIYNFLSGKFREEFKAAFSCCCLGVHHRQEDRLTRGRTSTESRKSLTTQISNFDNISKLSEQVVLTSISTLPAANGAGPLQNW
- experimental_details: Measurement of orexin type 2 receptor agonist activity (calcium fluorescence, Fluo-4 AM, FDSS)
- Type: cell-based
- condition_description: compound at 3 μM; CHO cells forcibly expressing human OX2 receptor; DMSO = 0%, 10 nM orexin A (human) = 100%
I'd appreciate it if you could supply OX2R agonist activity (3 μM, %) values for the items below.
One number for each entry, in %.

Field: example entries. Status: answers known.
compound: Cc1cnc([C@@H]2CC(N3CC[C@H](NS(C)(=O)=O)C3)=NO2)c(-c2c(F)cc(F)cc2F)c1 [Example 45]
OX2R agonist activity (3 μM, %): 101
//
compound: O=S(=O)(CF)N[C@@H]1CN(C2=NO[C@](CF)(c3ncc(F)cc3-c3c(F)cccc3F)C2)CC1(F)F [Example 149]
OX2R agonist activity (3 μM, %): 96
//
compound: CCS(=O)(=O)N[C@@H]1CN(C2=NOC(CF)(c3ncc(Cl)cc3-c3c(F)cccc3F)C2)C[C@@H]1F (some centres unmarked) [Example 115]
OX2R agonist activity (3 μM, %): 100
//
compound: CS(=O)(=O)N[C@@H]1CN(C2=NOC(c3ccc(F)c(F)c3-c3c(F)cccc3F)C2)C[C@@H]1F (some centres unmarked) [Example 137]
OX2R agonist activity (3 μM, %): 102
//
compound: CS(=O)(=O)N[C@H]1CCCN(C2=NOC(c3ccccc3-c3c(F)cccc3F)C2)C1 (some centres unmarked) [Example 6]
OX2R agonist activity (3 μM, %): 98

Each compound below has a recorded value; state its OX2R agonist activity (3 μM, %).
1. Cc1cnc([C@@H]2CC(N3C[C@H](F)[C@H](NS(=O)(=O)C4(F)CC4)C3)=NO2)c(-c2c(F)cc(F)cc2F)c1 (single isomer, unassigned) [Example 107]
2. Cc1cnc([C@@H]2CC(N3C[C@H](F)[C@H](NS(C)(=O)=O)C3)=NO2)c(-c2c(F)cc(F)cc2F)c1 [Example 57]
3. CS(=O)(=O)N[C@@H]1CN(C2=NOC(c3ncc(Cl)cc3-c3c(F)cccc3F)C2)C[C@@H]1F (some centres unmarked) [Example 103]

98
105
96
